System: SK-OV-3 ovarian
Assay: NCI tumour cell line growth inhibition, 48 h
Consider the following compounds; for each one, report its GI50.

Note to self: GI50 recorded for COc1cc(C(=O)/C=C/c2cc(-c3ccc4c(c3)OCO4)n[nH]2)cc(OC)c1OC was 4.44 µM

For this compound ( CN1CCN(CCCNC(=O)c2c3c(n4ccccc24)C(=O)c2ncccc2C3=O)CC1 ), measured GI50 is 3.46 µM

Reported GI50 for CCN(CC)CCNC(=O)c1cccc2c1-c1ccccc1C2=O was > 100 µM

// field: GI50; key: c1ccc(-c2[nH]ncc2-c2ccnc(-c3ccc(OCCN4CCOCC4)cc3)c2)nc1 ; value = > 25 µM

Documented GI50 of COc1ccc(OC)c(Nc2nc3nonc3nc2Nc2cccc(Br)c2)c1 : 0.486 µM

response.value for O=S(=O)(NC1=NCCN1C(=S)SN1CCn2c1nsc2=S)c1ccc(Oc2ccccc2)cc1 (field: GI50) = > 100 µM

For Cn1c(CCCC(=O)O)nc2cc(N(CCCl)CCCl)ccc21 the compound record lists GI50 as > 86.4 µM

Recorded result, CC[C@@H](C)/C=C(C)/C=C/C(=O)c1c(O)c(-c2ccc(OC(=O)[C@@]34CC[C@@](C)(C(=O)O3)C4(C)C)cc2)cn(O)c1=O , GI50: 7.48 µM

What the record says about O=C(/C=C/c1ccccc1)c1cccc2ccccc12 : GI50 is 3.11 µM

Field GI50 (entry O=C1/C(=C\c2ccc(F)cc2)CN(C(=O)c2ccccc2F)C/C1=C\c1ccc(F)cc1 ) reads 2.23 µM

----------
System: HCC-2998 colon
Test: NCI tumour cell line growth inhibition, 48 h
reported metric: TGI (µM)
Supply the numeric figure in µM, leaving out any unit text.

TGI recorded for this compound, COC(=O)[C@]12CC[C@@H](C)[C@H](C)[C@@H]1C1=CC[C@@H]3[C@@]4(C)C(C=O)=C[C@@](C)(CO)[C@@H]4[C@H](O)C[C@@]3(C)[C@]1(C)CC2 , is 9.45

// field: TGI; key: CC1(c2ccccc2)O[C@@H]2C[C@H]3[C@@H]4CCC5=CC(=O)C=C[C@]5(C)[C@@]4(F)[C@@H](O)C[C@]3(C)[C@]2(C(=O)CO)O1 (some centres undefined) ; value = 33.3

Memo: O=C1/C(=C\c2ccc(F)cc2)CN(C(=O)c2ccccc2F)C/C1=C\c1ccc(F)cc1 , reported TGI: 3.32

----------
Exercise: for every item that follows, state its recorded TGI.
Tested on: SW-620 colon
Assay: NCI tumour cell line growth inhibition, 48 h

Given the compound CSC1=NN(C(C)=O)C(C(OC(C)=O)C(OC(C)=O)C(OC(C)=O)C(COC(C)=O)OC(C)=O)S1 (stereo not given) and test system SW-620 colon, the measured TGI is > 100 µM

Per the reported SW-620 colon data, COc1ccccc1-n1nnc2c(N)nc(N)nc21 has TGI of > 100 µM

Entry CN1CCN(CCCNC(=O)c2c3c(n4ccccc24)C(=O)c2ncccc2C3=O)CC1 , tested on SW-620 colon, has a reported TGI of 9.49 µM

I looked up O=C(Nc1nc(-c2ccc(Cl)cc2)cs1)c1cc(O)c(O)c(O)c1 and its TGI for SW-620 colon was > 5000 µM

# CC1(C)C(=O)OC(n2cc(F)c(=O)[nH]c2=O)C1=O (stereo not given) with SW-620 colon: TGI is > 100 µM

Param item: COc1ccc(OC)c(Nc2nc3nonc3nc2Nc2cccc(Br)c2)c1 ; param system: SW-620 colon; output TGI: > 100 µM

So the reported TGI for Cn1c(=O)c2ccccc2[n+]2c(-c3cccc([N+](=O)[O-])c3)csc12 , on SW-620 colon, turned out to be > 100 µM

Entry NCCCNc1nc2ccccc2c2c(=O)c3cc(F)ccc3sc12 ; assay system SW-620 colon; TGI recorded at 3.27 µM

# lookup: Cc1ccc(Nc2cccc3c2C(=O)c2cccc(Nc4ccc(C)cc4S(=O)(=O)O)c2C3=O)c(S(=O)(=O)O)c1 on SW-620 colon, TGI = > 100 µM

Log: SW-620 colon, compound C[P+]1(Cc2ccccc2)CCCC1 , TGI = > 100 µM

----------
Test system: CCRF-CEM leukemia
Test: NCI tumour cell line growth inhibition, 48 h; in the data active = GI50 below about 0.43 µM; inactive = the rest
The reply should be one of these categories: 1 for active, -1 for inactive

So what was the verdict on C=C1c2nc3ccccc3n2C=C(c2cccc(Cl)c2)N1Cc1ccc(OC)cc1 in this test?
-1

For NC(=O)c1c(NC(=O)c2cccs2)sc2c1CCC(=O)C2 , which call appears in the assay record?
-1

// return assay outcome for COc1cccc(Nc2ncnc3cc(NC(=O)CCl)ccc23)c1
1

----------
Tested on: SF-539 CNS
Assay: NCI tumour cell line growth inhibition, 48 h
Task for the reader: assign each of the following compounds its reported TGI.

Notebook: CC1(C)Cc2c(sc3[nH]c(=S)[nH]c(=S)c23)CS1 , TGI read as > 100 µM

// CNC(=O)C(C)Oc1ccc(OCC2CCCCC2)cc1 (stereo unspecified) : TGI value = > 100 µM

Looking up C=C1c2nc3ccccc3n2C=C(c2ccccc2)N1c1ccc(Cl)cc1 , I found its TGI recorded as 20.9 µM

The compound listed as Oc1ccc2c(=S)cc(-c3ccc(Br)cc3)oc2c1O has a reported TGI of 7.28 µM

Recorded TGI (compound COC(=O)c1c[nH]c2cc(OC(C)C)c(OC(C)C)cc2c1=O ): > 100 µM

In plain terms, CCOC(=O)c1ncn(CCc2ccc(Cl)cc2)c1C has a documented TGI of > 100 µM

----------
Tested on: SW-620 colon
Test: NCI tumour cell line growth inhibition, 48 h; in the data active = GI50 below about 0.43 µM; inactive = the rest
Use one of these outcomes when replying: active, inactive

Which outcome was entered for the molecule Cc1ccc(N)cc1[As]=[As]c1cc(N)ccc1C (configuration not stated) in this test?
inactive

Could you kindly confirm the outcome this assay logged for COc1cccc2c1C(=O)c1c(O)c3c(c(O)c1C2=O)C[C@@](O)(C(=O)CO)CC3OC1CC(N)C(OC2CCCCO2)C(C)O1 (some centres not stated) ?
active

Entry NC(=O)c1c(NC(=O)c2cccs2)sc2c1CCC(=O)C2 : call = ?
inactive

Recorded test call requested for C=CCn1c2ccccc2c2c3c(c4c5ccccc5n(CC=C)c4c21)C(=O)N(O)C3=O
inactive

Call for entry Oc1ccc2c(=S)cc(-c3ccc(Br)cc3)oc2c1O :
inactive

// return assay outcome for COc1cc(C(=O)/C=C/c2cc(-c3ccc4c(c3)OCO4)n[nH]2)cc(OC)c1OC
inactive

GET /call?item= NCCCNc1nc2ccccc2c2c(=O)c3cc(F)ccc3sc12 returns the recorded outcome of this test.
inactive

Answer briefly: the call reported for COc1ccc2c(c1)C(=Nc1ccc(F)c(Cl)c1)c1c-2c(Nc2ccc(F)c(Cl)c2)nc2ccccc12 in this assay.
inactive

Query: recorded result category for Nc1[nH]nc2nc(-c3cc(Cl)ccc3Cl)cc(-c3ccc(F)cc3)c12 in this test
inactive

Please indicate how the test categorized COC(=O)[C@]12CC[C@@H](C)[C@H](C)[C@@H]1C1=CC[C@@H]3[C@@]4(C)C(C=O)=C[C@@](C)(CO)[C@@H]4[C@H](O)C[C@@]3(C)[C@]1(C)CC2 .
inactive

// outcome(item) with item = COC(=O)C1C(C(=O)O)C2(c3ccccc3)C(=O)C1(c1ccccc1)C(c1ccccc1)=C2c1ccccc1 (configuration not stated)
inactive

Assay outcome for COc1cc2c(cc1OC)C(C(CCCCCC(CCC(C)C)C1NCCc3cc(OC)c(OC)cc31)CCC(C)C)NCC2 (configuration not stated) : what was it?
active

Test call, this molecule: Cc1sc(C(=O)c2cncnc2N[C@@H]2C[C@H](COS(N)(=O)=O)[C@@H](O)C2)cc1[C@@H]1NCCc2ccc(Cl)cc21
inactive

Dear colleague, could you share the recorded outcome for CNC(=O)ON(C(C)=O)C(=O)NC when you have a moment?
inactive

Record request — test call for C=C1C(=O)O[C@H]2[C@H]1CC/C(COC(=O)c1cccnc1N)=C\CC[C@@]1(C)O[C@@H]21
inactive

Outcome? Cn1ncc(C#N)c1-c1ccc2c(c1)CN([C@H](CN)Cc1cccc(F)c1)C2=O
inactive

Given COc1ccc(Cn2cc(COc3cc(/C=C/C(=O)c4cc(OC)c(OC)c(OC)c4)ccc3OC)nn2)cc1 , state the outcome it received in this test.
inactive

----------
System: MDA-MB-435
Assay: NCI tumour cell line growth inhibition, 48 h
reported metric: TGI

TGI recorded for this compound, C/C=C(\N=C=S)C(=O)OC1C(COC(C)=O)OC([C@]2(O)CC(=O)C(=N)C(C(=O)O)=C2O)C(O)C1OC1CC(OC)C(O)([C@@H](C)OC(=O)[C@@H](C)CC)C(C)O1 (some centres undefined) , is 35.7 µM

Notebook: Cc1ccc(Sc2ccccc2C23OC(C)(C4C(=O)N(c5ccccc5)C(=O)C42)N(C)C3=O)cc1 (centres undefined) , TGI read as > 100 µM

For Cc1c(C(=O)c2ccccc2)[n+](=O)c2cc(Cl)c(Cl)cc2n1[O-] the compound record lists TGI as 24.5 µM

Summary for this compound, CC(=O)OCC1OC(n2c(C)c(C(C)=O)c(-c3ccco3)c(C#N)c2=S)C(OC(C)=O)C(OC(C)=O)C1OC(C)=O (centres undefined) : TGI is > 100 µM

TGI reported for this compound O=C1C=C(c2ccccc2)OC1C1Sc2ccccc2NC1=O (centres undefined) : > 100 µM

Documented TGI of O=Cc1cn(CCCCCCCCn2cc(C=O)c3ccccc32)c2ccccc12 : > 10 µM

TGI for CC(=O)NS(=O)(=O)c1ccc(NCc2cccc3c(=O)c4ccc(Cl)cc4oc23)cc1 is > 100 µM

get_value(item= CC(C)(C)[Si](C)(C)OCC1OC(n2cnc3c(=O)[nH]cnc32)CC1O (centres undefined) , readout=TGI) returns > 100 µM

Measured TGI, COCn1cc(C2=C(C)C(=O)C(C)=C(C)C2=O)cn1 : 33.9 µM
